Source of measurements: the supplement of paper PMC9112550

- System: Escherichia coli TOP10;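 also: peptides expressed intracellularly from a pBAD plasmid library in pooled LB shake-flask culture, induced with 0.3% L-arabinose, DNA abundance read by NGS, three biological replicates, DESeq2 with apeglm shrinkage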
- Method description: shrunken log2 fold change of peptide-encoding DNA abundance (4.5 h post-induction vs induction); higher = less antimicrobial activity (less host growth inhibition)
- Setup conditions: time post-induction: 4.5 h; library: site-saturation at positions 5, 18, 19, 20
Assay endpoint: shrunken log2 fold change

> print(dat)
             input.sequence           tested.target             assay.endpoint  recorded.value
 1  RRIRHRPPRLPRPRPRPMPYPRP  Escherichia coli TOP10  shrunken log2 fold change        -0.00164
 2  RRIRHRPPRLPRPRPRPIPAPRP  Escherichia coli TOP10  shrunken log2 fold change            0.32
 3  RRIRARPPRLPRPRPRPYLAPRP  Escherichia coli TOP10  shrunken log2 fold change          -0.594
 4  RRIRHRPPRLPRPRPRPVWNPRP  Escherichia coli TOP10  shrunken log2 fold change          -0.402
 5  RRIRERPPRLPRPRPRPCTHPRP  Escherichia coli TOP10  shrunken log2 fold change           -1.36
 6  RRIRMRPPRLPRPRPRPTSCPRP  Escherichia coli TOP10  shrunken log2 fold change           0.415
 7  RRIRERPPRLPRPRPRPHWSPRP  Escherichia coli TOP10  shrunken log2 fold change           -0.71
 8  RRIRARPPRLPRPRPRPGMPPRP  Escherichia coli TOP10  shrunken log2 fold change           0.128
 9  RRIRGRPPRLPRPRPRPATEPRP  Escherichia coli TOP10  shrunken log2 fold change           0.976
10  RRIRPRPPRLPRPRPRPRCTPRP  Escherichia coli TOP10  shrunken log2 fold change           0.753
11  RRIRKRPPRLPRPRPRPYSDPRP  Escherichia coli TOP10  shrunken log2 fold change          0.0075
12  RRIRCRPPRLPRPRPRPGMWPRP  Escherichia coli TOP10  shrunken log2 fold change           0.211
13  RRIRVRPPRLPRPRPRPHEMPRP  Escherichia coli TOP10  shrunken log2 fold change          -0.058
14  RRIRCRPPRLPRPRPRPHYGPRP  Escherichia coli TOP10  shrunken log2 fold change          -0.189
15  RRIRRRPPRLPRPRPRPKQIPRP  Escherichia coli TOP10  shrunken log2 fold change           0.289
